Biological target: T1, recombinant biotinylated human PAR2 extracellular domain (residues 1-75), N-terminal AviTag, C-terminal Flag … (human, UniProt P55085 26-75, biotin on the AviTag (enzymatic biotinylation))
T1 construct: also called Bio-human-PAR2 ECD; human PAR2 ECD; not shown: N-terminal AviTag (Avidity LLC); C-terminal Flag and poly Histidine tags
T1 sequence (P55085 26-75): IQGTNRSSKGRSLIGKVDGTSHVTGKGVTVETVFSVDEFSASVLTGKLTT
Test: HTRF competition with Dylight650-Par0067 IgG, pH 6.0, IgG
pIC50: −log10 of the molar value.
Please enter Criterion met where pIC50 is greater than or equal to 6, and Criterion not met where it is lower.

[[record]]
binder = "PaB670152 IgG (antibody, V domains shown, IgG1-TM (L234F, L235E, P331S), human lambda light chain) VH: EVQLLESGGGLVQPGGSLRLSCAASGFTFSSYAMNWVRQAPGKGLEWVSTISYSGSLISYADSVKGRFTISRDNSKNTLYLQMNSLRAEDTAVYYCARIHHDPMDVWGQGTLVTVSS VL: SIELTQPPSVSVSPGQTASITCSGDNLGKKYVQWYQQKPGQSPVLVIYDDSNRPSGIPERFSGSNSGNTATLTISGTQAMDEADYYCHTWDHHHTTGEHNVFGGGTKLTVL"
class_name = "Criterion not met"

[[record]]
binder = "Par0067 IgG (antibody, V domains shown, IgG1-TM (L234F, L235E, P331S), human lambda light chain; also called ZZ15D2-D02; parent Par0067 IgG) VH: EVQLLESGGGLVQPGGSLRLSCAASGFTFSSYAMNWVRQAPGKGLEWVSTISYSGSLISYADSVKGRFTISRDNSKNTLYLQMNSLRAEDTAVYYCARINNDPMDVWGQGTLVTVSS VL: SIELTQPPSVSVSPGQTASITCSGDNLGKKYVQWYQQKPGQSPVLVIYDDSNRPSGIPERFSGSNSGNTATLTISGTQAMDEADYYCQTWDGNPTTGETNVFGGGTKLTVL"
class_name = "Criterion met"


Hey, just so you know, these numbers are from patent US20180305450A1.
